assay: Solubility of crystalline forms in simulated gastric fluid (SGF); type: physicochemical; conditions: simulated gastric fluid (SGF), simulated gastric fluid, thermodynamic from solid, equilibrium 4 hr
measured-quantity: solubility at 4 h (µg/mL)
Response body: numeric value in µg/mL, unit text excluded.

[Q] Quick one: solubility at 4 h of CC(C)c1nc2cc(O)ccc2c(=O)n1-c1ccc(C#N)cc1 [Form B, reference compound] ?
[A] 73.6

----------
assay: Solubility of crystalline forms in simulated gastric fluid (SGF); assay type: physicochemical; conditions: equilibrium 1 hr
For each record, write down the corresponding Solubility in SGF.
Response body: numeric value in µg/mL, unit text excluded.

[Q] Quick one: Solubility in SGF of CC(C)c1nc2cc(O)ccc2c(=O)n1-c1ccc(C#N)cc1 [Form AL] ?
[A] 77.4

[Q] Quick one: Solubility in SGF of CC(C)c1nc2cc(O)ccc2c(=O)n1-c1ccc(C#N)cc1 [Form Z] ?
[A] 79.6

[Q] Quick one: Solubility in SGF of CC(C)c1nc2cc(O)ccc2c(=O)n1-c1ccc(C#N)cc1 [Form B, reference compound] ?
[A] 77.5

[Q] Quick one: Solubility in SGF of CC(C)c1nc2cc(O)ccc2c(=O)n1-c1ccc(C#N)cc1 [Form D] ?
[A] 98.7
